# System: IGROV1 ovarian
# EXPERIMENT NOTES: NCI tumour cell line growth inhibition, 48 h
READOUT LABEL: TGI

{"columns": ["COMPOUND", "TARGET", "ASSAY VALUE"],
 "data": [
  ["CCC[CH2][Sn]1([CH2]CCC)[O]C(=O)c2cccc([N+](=O)[O-])c2C(=O)[O]1", "IGROV1 ovarian", "2.38 µM"],
  ["O=C(O)c1cc(NCc2cc(O)ccc2O)ccc1O", "IGROV1 ovarian", "> 100 µM"],
  ["Clc1nc2nc(N3CCNCC3)nc(N3CCCC3)c2[nH]1", "IGROV1 ovarian", "32.7 µM"],
  ["[N-]=[N+]=C(C(=O)CN1CCCC1=O)S(=O)(=O)c1ccccc1", "IGROV1 ovarian", "> 100 µM"],
  ["O=C(O)C(Cc1ccccc1)Cc1ccccc1", "IGROV1 ovarian", "> 100 µM"],
  ["Nc1ccc(C#Cc2ccccc2C#CCCCCO)cc1", "IGROV1 ovarian", "30.2 µM"],
  ["C=C1c2c(n(S(=O)(=O)c3ccccc3)c3ccccc23)[C@@]2(C(=O)OC)CC3C=CC2N1C3", "IGROV1 ovarian", "> 100 µM"],
  ["CC1(C)OCC2OC(n3cnc4c(N)nc(Cl)nc43)C(OS(C)(=O)=O)C2O1 (stereo not given)", "IGROV1 ovarian", "> 100 µM"],
  ["N#Cc1ccc(-c2ccc(Cl)cc2)n(C2OC(CO)C(O)C(O)C2O)c1=S (stereo not given)", "IGROV1 ovarian", "> 100 µM"],
  ["Cc1cc(N(CCC#N)CCC#N)ccc1/C(N=Nc1ccc(C(=O)O)cc1)=N\\NC(=O)c1ccccc1", "IGROV1 ovarian", "> 100 µM"],
  ["COc1cc2ncnc(Oc3ccc(NC(=O)Nc4ccc(CN5CCOCC5)c(C(F)(F)F)c4)c4ccccc34)c2cc1OC", "IGROV1 ovarian", "3.25 µM"],
  ["Cc1ccc(C)n1-c1ccccc1C1C=Cn2c(=O)oc3c(OC(C)C)c(OC(C)C)c(O)c1c32 (stereo not given)", "IGROV1 ovarian", "> 100 µM"],
  ["C[C@]12CCC(=O)C=C1C[C@@H](O)[C@@H]1[C@@H]2CC[C@@]2(C)[C@H]1CC[C@]2(C)O", "IGROV1 ovarian", "> 100 µM"],
  ["CC1=CC2(C)/C=C(C)/C=C\\CC(O)/C=C3/C=CC(=C4C(=O)OC2(CC1C)C4=O)OC3 (stereo not given)", "IGROV1 ovarian", "8.93 µM"],
  ["O=C1CCC2(O)c3ccccc3C2Cc2ccccc21 (stereo not given)", "IGROV1 ovarian", "> 100 µM"],
  ["NC1CC(=O)c2c(-c3cccs3)sc(-c3cccs3)c21 (stereo not given)", "IGROV1 ovarian", "> 100 µM"],
  ["O=C1CCCC1CC(CN1CCOCC1)Sc1nnnn1-c1ccccc1 (stereo not given)", "IGROV1 ovarian", "> 100 µM"],
  ["N#Cc1c(/C=C/c2ccccc2)c2c([nH]c1=S)CCCCC2", "IGROV1 ovarian", "> 100 µM"],
  ["O=C(Nc1cccc([N+](=O)[O-])c1)c1cccc(C(=O)Nc2cccc([N+](=O)[O-])c2)c1", "IGROV1 ovarian", "> 100 µM"],
  ["CC(C)[C@@H](C(=O)O[C@@H]1/C=C/C(=O)O[C@@H](C)CCC/C=C/[C@@H]2C[C@H](O)C[C@H]21)N(C)C", "IGROV1 ovarian", "> 89 µM"]
]}
